Molecular target: T1, human GIP receptor (human) (UniProt P48546)
T1 sequence (looked up): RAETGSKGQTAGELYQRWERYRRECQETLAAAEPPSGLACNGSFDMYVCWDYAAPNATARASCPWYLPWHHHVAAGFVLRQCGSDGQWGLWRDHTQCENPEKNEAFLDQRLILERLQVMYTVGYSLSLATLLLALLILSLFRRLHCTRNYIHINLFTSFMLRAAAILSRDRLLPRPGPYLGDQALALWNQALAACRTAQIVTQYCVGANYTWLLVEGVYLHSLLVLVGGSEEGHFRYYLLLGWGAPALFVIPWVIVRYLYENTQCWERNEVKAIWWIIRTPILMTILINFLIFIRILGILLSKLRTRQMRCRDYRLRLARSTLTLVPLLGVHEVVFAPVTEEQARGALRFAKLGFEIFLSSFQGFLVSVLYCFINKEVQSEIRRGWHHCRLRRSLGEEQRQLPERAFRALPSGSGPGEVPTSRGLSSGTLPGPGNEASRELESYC
Assay: cell-based or functional assay
measured-property: Relative cAMP EC50 (nM)
Give just the numeric value; nM need not be written.

Example entries begin here.
binder	unit-symbol	Relative cAMP EC50
YXQGTXTSDXSIXLDKKAQXAFIEYLTEGGPSSGEPPPSGSEE (non-natural residues, C18 diacid acylation, C-terminal amide; synthetic construct; SITE 2: note = 2-Aminoisobutyric Acid; SITE 6: note = alpha-methyl-2-fluoro-L-phenylalanine; SITE 10: note = 3-(4-Pyridyl)-L-alanine; SITE 13: note = alpha-methyl-leucine; SITE 17: note = Lysine is chemically modified through conjugation of the epsilon-amino group of the Lysine) [Example 633]	nM	0.0186
YXQGTXTSDYSILLDXKAQXAFIEYLLEGGPSSGAPPPS (synthetic construct; SITE 2: note = 2-Aminoisobutyric Acid; SITE 6: note = alpha-methyl-2-fluoro-L-phenylalanine; SITE 16: note = L-ornithine; SITE 17: note = Lysine is chemically modified through conjugation of the epsilon-amino group of the Lysine side chain with (gamma-Glu)2-CO-(CH2)16-CO2H; SITE) [Example 428]	nM	0.01

Pending binder:
Using known records, supply Relative cAMP EC50 for YXQGTFTSDXSQXLDXKAQXAFIEXLIEGGPSSGEPPPSGSEE (non-natural residues; lysine acylated with C18 diacid; C-terminal amide; synthetic construct; SITE 2: note = 2-Aminoisobutyric Acid; SITE 10: note = 3-(4-Pyridyl)-L-alanine; SITE 13: note = alpha-methyl-leucine; SITE 16: note = L-ornithine; SITE 17: note = Lysine is chemically modified through conjugation of the epsilon-amino group of the Lysine side chain with (gamma-Gl)) [Example 1028]
0.189

Hey, just so you know, these numbers are from patent US20240270821A1.
